Each recorded value in this set is attributed to PubChem BioAssay.

System: Chordin-like protein 2 (CHRDL2)
experiment: compounds binding chordin-like 2 – biochemical, small-molecule microarray, 635 nm fluorescence, primary screen (AID 1126);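 also: printed compound slides probed with Chrdl2 protein at 4 µg/mL for 1 h at 4 C; score merges 667 nm emission intensity with signal to noise over three replicate slides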
test-parameters: fluorescence 635 nm, higher = more signal
Hi, to clarify the labels: Met covers composite z-score from -0.04 upward, Not met covers anything below -0.04.

Request: Hello, I need to know if CCCCC(O)C1C=CC2C(=O)N(c3ccccc3)C(=O)C2N1Nc1ccc(C#N)cc1 (stereo not given) has measured composite z-score not below -0.04. Thanks!
Response: Not met

Request: Moving on to `COC(=O)[C@@]1(Cc2ccc(F)cc2)[C@H]2c3cc(C(=O)N4CCCC4)n(CCc4ccccn4)c3C[C@H]2CN1C(=O)c1ccccc1`
Response: Not met

Request: Moving on to O=C1C2C=CC(C(O)C3CCCCC3)N(n3cnnc3)C2C(=O)N1Cc1ccccc1 (stereo not given)
Response: Not met

Request: Moving on to `Cc1ccc(S[C@]2(C(=O)NC3CC3)CC(=O)N(C(C)C)[C@@H]2c2ccc(CO)cc2I)cc1`
Response: Not met

Request: Moving on to `CCCCCCc1nc(Cc2cc(OC)c(OC)c(OC)c2)cc2c1[Si](C(C)C)(C(C)C)O[C@H]2c1ccccc1`
Response: Met

Request: Moving on to `Cc1ccc(S[C@]2(C(=O)NCc3ccccc3)CC(=O)N(Cc3ccccc3C(F)(F)F)[C@@H]2c2ccc(CO)cc2)cc1`
Response: Not met

Request: Moving on to `CCCC=C(CCC)[C@@H](NC(=O)OCC(C)C)c1ccc(C(=O)OC)cc1`
Response: Met

Request: Moving on to NC(=O)N1C(=O)C2C(C1=O)C1C=C(CCCO)C2C(c2ccc(CN3CCCC3)cc2)N1Cc1sc2ccccc2c1Cl (stereo not given)
Response: Not met

Request: Moving on to `NC(=O)NCC#Cc1ccc2c(c1)[C@]1(C(=O)N2)[C@H](c2ccc(OCCO)cc2)N2[C@H](c3ccccc3)[C@H](c3ccccc3)OC(=O)[C@H]2[C@@H]1C(=O)O`
Response: Not met

Request: Moving on to CC1CC/C=C\[C@H]2OC34C=CCN(Cc5ccccc5)C(=O)[C@H]3N(CCCCCCO)C(=O)[C@@H]4C2C(=O)O1 (stereo not given in full)
Response: Not met

Request: Moving on to COc1ccc(C(O)C2C=CC3C(=O)N(C)C(=O)C3N2N(c2ccccc2)c2ccccc2)cc1 (stereo not given)
Response: Met

Request: Moving on to `C=CCNC(=O)[C@H]1[C@@H]2C(=O)O[C@@H](c3ccccc3)[C@@H](c3ccccc3)N2[C@@H](c2ccccc2OCCO)[C@]12C(=O)N(C(=O)OCCOC)c1ccc(C#Cc3ccc(OC)cc3)cc12`
Response: Met

Request: Moving on to `CCOC(=O)C[C@H]1[C@H](OC(=O)c2cc3ccccc3oc2=O)[C@@H](NC(=O)CC(C)C)c2cc(OCCCO)ccc2N1C(=O)Cc1ccc(OC)cc1`
Response: Met

Request: Moving on to `Cc1ccc(F)cc1S(=O)(=O)N[C@H]1CCN(Cc2ccc(OC(C)C)cc2)C1`
Response: Met

Request: Moving on to `CN1C(=O)[C@@H]2[C@@H](CC(COc3ccccc3)=C3[C@@H](CCc4ccccc4)OB(O)C[C@@H]32)C1=O`
Response: Not met
